- Tested on: 186277-243-T-J2-PDC complex spheroid growth, % test/control
- EXPERIMENTAL_DETAILS: Anticancer human tumor 186277-243-T-J2-PDC patient-derived colon adenocarcinoma cell line growth inhibition [Asc]
- CONDITION_DESCRIPTION: second compound 10 µM; first compound 0.1 µM; stronger effect = lower value
QUANTITY_MEASURED: viability, T/C (%)

1. COc1c(OCCCN2CCOCC2)ccc2c3n(c(=NC(=O)c4cnc(N)nc4)nc12)CCN3 + Cc1c(S(C)(=O)=O)c(-c2cc(F)cc(N3CCN(c4ccc(NS(=O)(=O)c5ccc(NC(CCN6CCC(C(=O)OCCCP(=O)(O)O)CC6)CSc6ccccc6)c(S(=O)(=O)C(F)(F)F)c5)cc4)CC3)c2)c(-c2ccc(Cl)cc2)n1C(C)C = 15.5

###

- Tested on: 186277-243-T-J2-PDC complex spheroid growth, % test/control
- EXPERIMENTAL_DETAILS: Anticancer human tumor 186277-243-T-J2-PDC cell line growth inhibition [Asc];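 further: spheroids exposed to agents for 7 days; 100% = DMSO vehicle control wells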
- CONDITION_DESCRIPTION: second compound 0.316 µM; first compound 0.0949 µM; stronger effect = lower value
Listed compounds paired with reported viability, T/C
QUANTITY_MEASURED: viability, T/C

1) Cc1nc(N2CCC3(CC2)COC(C)C3N)c(CO)nc1Sc1ccnc(N)c1Cl (stereo unspecified) + Cc1c(S(C)(=O)=O)c(-c2cc(F)cc(N3CCN(c4ccc(NS(=O)(=O)c5ccc(NC(CCN6CCC(C(=O)OCCCP(=O)(O)O)CC6)CSc6ccccc6)c(S(=O)(=O)C(F)(F)F)c5)cc4)CC3)c2)c(-c2ccc(Cl)cc2)n1C(C)C = 112%
2) Cc1nc(N2CCC3(CC2)COC(C)C3N)c(CO)nc1Sc1ccnc(N)c1Cl (stereo unspecified) + CNC(C)C(=O)NC1CN(S(=O)(=O)c2cccc(S(=O)(=O)N3CCC4CCC(C(=O)NC(c5ccccc5)c5ccccc5)N4C(=O)C(NC(=O)C(C)NC)C3)c2)CCC2CCC(C(=O)NC(c3ccccc3)c3ccccc3)N2C1=O = 106%
3) NC(=O)C(=Cn1cnc(-c2cc(C(F)(F)F)cc(C(F)(F)F)c2)n1)c1cncnc1 + CNC(C)C(=O)NC1CN(S(=O)(=O)c2cccc(S(=O)(=O)N3CCC4CCC(C(=O)NC(c5ccccc5)c5ccccc5)N4C(=O)C(NC(=O)C(C)NC)C3)c2)CCC2CCC(C(=O)NC(c3ccccc3)c3ccccc3)N2C1=O = 97.8%
4) CCN1C(C(=O)NC23CCC(C(=O)O)(CC2)CC3)C(c2cccc(Cl)c2F)C2(C(=O)Nc3cc(Cl)ccc32)C12CCCCC2 (stereo unspecified) + Cc1c(S(C)(=O)=O)c(-c2cc(F)cc(N3CCN(c4ccc(NS(=O)(=O)c5ccc(NC(CCN6CCC(C(=O)OCCCP(=O)(O)O)CC6)CSc6ccccc6)c(S(=O)(=O)C(F)(F)F)c5)cc4)CC3)c2)c(-c2ccc(Cl)cc2)n1C(C)C = 82.6%
5) CCN1C(C(=O)NC23CCC(C(=O)O)(CC2)CC3)C(c2cccc(Cl)c2F)C2(C(=O)Nc3cc(Cl)ccc32)C12CCCCC2 (stereo unspecified) + CNC(C)C(=O)NC1CN(S(=O)(=O)c2cccc(S(=O)(=O)N3CCC4CCC(C(=O)NC(c5ccccc5)c5ccccc5)N4C(=O)C(NC(=O)C(C)NC)C3)c2)CCC2CCC(C(=O)NC(c3ccccc3)c3ccccc3)N2C1=O = 149%
6) NC(=O)C(=Cn1cnc(-c2cc(C(F)(F)F)cc(C(F)(F)F)c2)n1)c1cncnc1 + Cc1c(S(C)(=O)=O)c(-c2cc(F)cc(N3CCN(c4ccc(NS(=O)(=O)c5ccc(NC(CCN6CCC(C(=O)OCCCP(=O)(O)O)CC6)CSc6ccccc6)c(S(=O)(=O)C(F)(F)F)c5)cc4)CC3)c2)c(-c2ccc(Cl)cc2)n1C(C)C = 44.8%

###

- Tested on: 186277-243-T-J2-PDC complex spheroid growth, % test/control
- EXPERIMENTAL_DETAILS: Anticancer human tumor 186277-243-T-J2-PDC cell line growth inhibition [Asc];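 further: spheroids exposed to agents for 7 days; 100% = DMSO vehicle control wells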
- CONDITION_DESCRIPTION: second compound 0.1 µM; first compound 0.0316 µM; stronger effect = lower value
QUANTITY_MEASURED: viability, T/C (%)

1. O=C(c1ccc(F)c(F)c1Nc1ccc(I)cc1F)N1CC(O)([C@@H]2CCCCN2)C1 + Cc1c(S(C)(=O)=O)c(-c2cc(F)cc(N3CCN(c4ccc(NS(=O)(=O)c5ccc(NC(CCN6CCC(C(=O)OCCCP(=O)(O)O)CC6)CSc6ccccc6)c(S(=O)(=O)C(F)(F)F)c5)cc4)CC3)c2)c(-c2ccc(Cl)cc2)n1C(C)C = 107
2. C=C(F)C(=O)N1CCN(c2nc(OCC3CCCN3C)nc3c2CCN(c2cccc4cccc(Cl)c24)C3)CC1CC#N (centres undefined) + CNC(C)C(=O)NC1CN(S(=O)(=O)c2cccc(S(=O)(=O)N3CCC4CCC(C(=O)NC(c5ccccc5)c5ccccc5)N4C(=O)C(NC(=O)C(C)NC)C3)c2)CCC2CCC(C(=O)NC(c3ccccc3)c3ccccc3)N2C1=O = 108
3. C#Cc1c(F)ccc2cc(O)cc(-c3ncc4c(N5CC6CCC(C5)N6)nc(OCC56CCCN5CC(F)C6)nc4c3F)c12 (centres undefined) + CNC(C)C(=O)NC1CN(S(=O)(=O)c2cccc(S(=O)(=O)N3CCC4CCC(C(=O)NC(c5ccccc5)c5ccccc5)N4C(=O)C(NC(=O)C(C)NC)C3)c2)CCC2CCC(C(=O)NC(c3ccccc3)c3ccccc3)N2C1=O = 111
4. NC1CCC(NC2CC2c2ccccc2)CC1 (centres undefined) + CNC(C)C(=O)NC1CN(S(=O)(=O)c2cccc(S(=O)(=O)N3CCC4CCC(C(=O)NC(c5ccccc5)c5ccccc5)N4C(=O)C(NC(=O)C(C)NC)C3)c2)CCC2CCC(C(=O)NC(c3ccccc3)c3ccccc3)N2C1=O = 121

###

- Test system: 186277-243-T-J2-PDC complex spheroid growth, % test/control
- EXPERIMENTAL_DETAILS: Anticancer human tumor 186277-243-T-J2-PDC cell line growth inhibition [Asc];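 further: spheroids exposed to agents for 7 days; 100% = DMSO vehicle control wells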
- CONDITION_DESCRIPTION: second compound 0.1 µM; first compound 0.3 µM; stronger effect = lower value
QUANTITY_MEASURED: viability, T/C

1. Cc1nc(N2CCC3(CC2)COC(C)C3N)c(CO)nc1Sc1ccnc(N)c1Cl (stereo not drawn) + CNC(C)C(=O)NC1CN(S(=O)(=O)c2cccc(S(=O)(=O)N3CCC4CCC(C(=O)NC(c5ccccc5)c5ccccc5)N4C(=O)C(NC(=O)C(C)NC)C3)c2)CCC2CCC(C(=O)NC(c3ccccc3)c3ccccc3)N2C1=O = 97.7%
2. NC(=O)C(=Cn1cnc(-c2cc(C(F)(F)F)cc(C(F)(F)F)c2)n1)c1cncnc1 + Cc1c(S(C)(=O)=O)c(-c2cc(F)cc(N3CCN(c4ccc(NS(=O)(=O)c5ccc(NC(CCN6CCC(C(=O)OCCCP(=O)(O)O)CC6)CSc6ccccc6)c(S(=O)(=O)C(F)(F)F)c5)cc4)CC3)c2)c(-c2ccc(Cl)cc2)n1C(C)C = 6.16%
3. Cc1nc(N2CCC3(CC2)COC(C)C3N)c(CO)nc1Sc1ccnc(N)c1Cl (stereo not drawn) + Cc1c(S(C)(=O)=O)c(-c2cc(F)cc(N3CCN(c4ccc(NS(=O)(=O)c5ccc(NC(CCN6CCC(C(=O)OCCCP(=O)(O)O)CC6)CSc6ccccc6)c(S(=O)(=O)C(F)(F)F)c5)cc4)CC3)c2)c(-c2ccc(Cl)cc2)n1C(C)C = 116%

###

compounds and their reported viability, T/C
- System: 186277-243-T-J2-PDC complex spheroid growth, % test/control
- EXPERIMENTAL_DETAILS: Anticancer human tumor 186277-243-T-J2-PDC cell line growth inhibition [Asc];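 further: spheroids exposed to agents for 7 days; 100% = DMSO vehicle control wells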
- CONDITION_DESCRIPTION: second compound 0.03 µM; first compound 3.16 µM; stronger effect = lower value
QUANTITY_MEASURED: viability, T/C (%)

1) C=CC(=O)N1CCN(c2nc(=O)n(-c3c(C)ccnc3C(C)C)c3nc(-c4c(O)cccc4F)c(F)cc23)C(C)C1 (centres undefined) + CCN1C(C(=O)NC23CCC(C(=O)O)(CC2)CC3)C(c2cccc(Cl)c2F)C2(C(=O)Nc3cc(Cl)ccc32)C12CCCCC2 = 122
2) O=C(c1cc(Cc2n[nH]c(=O)c3ccccc23)ccc1F)N1CCN(C(=O)C2CC2)CC1 + CCN1C(C(=O)NC23CCC(C(=O)O)(CC2)CC3)C(c2cccc(Cl)c2F)C2(C(=O)Nc3cc(Cl)ccc32)C12CCCCC2 = 94.2
3) C=C(F)C(=O)N1CCN(c2nc(OCC3CCCN3C)nc3c2CCN(c2cccc4cccc(Cl)c24)C3)CC1CC#N (centres undefined) + CCN1C(C(=O)NC23CCC(C(=O)O)(CC2)CC3)C(c2cccc(Cl)c2F)C2(C(=O)Nc3cc(Cl)ccc32)C12CCCCC2 = 79.5
4) C#Cc1c(F)ccc2cc(O)cc(-c3ncc4c(N5CC6CCC(C5)N6)nc(OCC56CCCN5CC(F)C6)nc4c3F)c12 (centres undefined) + CCN1C(C(=O)NC23CCC(C(=O)O)(CC2)CC3)C(c2cccc(Cl)c2F)C2(C(=O)Nc3cc(Cl)ccc32)C12CCCCC2 = 4.76

Attribution: PubChem BioAssay AID1963426
